PROTOCOL_SUMMARY: p53 small molecule agonists, cell-based qHTS assay with rat liver microsomes (AID 1963578)
ASSAY_CONTEXT: HCT-116 p53RE-bla, beta-lactamase ratio, 16 h; series mostly up to 66 µM
Inconclusive results are not listed. Calls of active or inactive are those of the source. Calls come from the whole dose curve.
EXPERIMENTAL_ENDPOINT: activation

INSERT INTO results (compound, observed_result) VALUES
  ('Cc1cc2c(OCC(CNC(C)(C)C)OC(=O)c3ccccc3)cccc2[nH]1 (configuration not stated)', 'inactive'),
  ('CCCCCCCCCCC(=O)O', 'inactive'),
  ('CCC(C)c1cc([N+](=O)[O-])cc([N+](=O)[O-])c1OC(=O)OC(C)C (configuration not stated)', 'inactive'),
  ('CC1=C(/C=C/C(C)=C/C=C/C(C)=C\C(=O)O)C(C)(C)CCC1', 'inactive'),
  ('Nc1c2c(nc3c1CCC3)CCCC2', 'inactive'),
  ('CN1CCN(C2=Nc3ccccc3Oc3ccc(Cl)cc32)CC1', 'inactive'),
  ('Nc1nc(Cl)nc2c1ncn2[C@@H]1O[C@H](CO)[C@@H](O)[C@@H]1F', 'inactive'),
  ('COc1ncnc(NS(=O)(=O)c2ccc(N)cc2)c1OC', 'inactive'),
  ('CCCC1CCCC(=O)O1 (configuration not stated)', 'inactive'),
  ('CN1CCN(C2=Nc3ccccc3Sc3ccc(Cl)cc32)CC1', 'inactive');

The compound CCC(=O)Oc1ccc2c(c1)CC[C@@H]1[C@@H]2CC[C@@]2(C)[C@H]1C[C@@H](OC(=O)CC)[C@@H]2OC(=O)CC showed activation equal to inactive

The compound Oc1c(I)cc(I)c2cccnc12 showed activation equal to inactive

====

PROTOCOL_SUMMARY: p53 small molecule agonists, cell-based qHTS assay: qHTS cell viability counter screen (AID 1963581); note: potency is the fitted concentration of half-maximal effect; nearly all actives have a fitted effect of over 45% in size
ASSAY_CONTEXT: p53RE-bla HCT-116 viability, ATP luminescence, 16 h; series mostly up to 66 µM
Inconclusive results are not listed. The source made the active and inactive calls. Calls come from the whole dose curve.
EXPERIMENTAL_ENDPOINT: Potency

The compound COc1ccc(CN2CCN(C(c3ccc(F)cc3)c3ccc(F)cc3)CC2)c(OC)c1OC showed Potency equal to 15.8 µM (active)

The compound CC1=C(C(=O)OC(C)C)C(c2cccc([N+](=O)[O-])c2)C(C(=O)OC2CN(C(c3ccccc3)c3ccccc3)C2)=C(N)N1 (stereo not given) showed Potency equal to 11.2 µM (active)

The compound CCCCCCCC/C=C\CCCCCCCCOCCO showed Potency equal to 21.1 µM (active)

The compound CCCCCCCC[P+](CCCCCCCC)(CCCCCCCC)CCCCCCCC showed Potency equal to 2.56 µM (active)

The compound Cc1oc(-c2ccccc2)nc1CCOc1ccc(C[C@H](Nc2ccccc2C(=O)c2ccccc2)C(=O)O)cc1 showed Potency equal to 20.4 µM (active)

====

PROTOCOL_SUMMARY: Nuclear factor erythroid 2-related factor 2/antioxidant responsive element (Nrf2/ARE) small molecule agonists: luciferase reporter gene qHTS assay in human keratinocytes (AID 1919969); note: nearly all actives have a fitted effect of over 35% in size
ASSAY_CONTEXT: KeratinoSens HaCaT ARE-luciferase, luminescence, 24 h; series mostly up to 92.4 µM
Records with an inconclusive call do not appear. The source made the active and inactive calls. Calls follow the shape of the full dose curve.
Use one of these outcomes when replying: active, inactive

Input: Name the outcome recorded for Cc1cc(C)c(C=O)c(C)c1 in the assay.
Output: inactive

Input: Name the outcome recorded for Cc1ccnc(N)c1 in the assay.
Output: inactive

Input: Name the outcome recorded for Cc1ccccc1CCO in the assay.
Output: inactive

Input: Name the outcome recorded for CC[N+](CC)(CC)Cc1ccccc1 in the assay.
Output: inactive

Input: Name the outcome recorded for CC(C)C(=O)OC/C=C/c1ccccc1 in the assay.
Output: inactive

Input: Name the outcome recorded for O=C(O)Cn1c(C(=O)Nc2nc(-c3ccccc3Cl)cs2)cc2ccccc21 in the assay.
Output: active

Input: Name the outcome recorded for CCCCCOC(=O)CCC in the assay.
Output: inactive

Input: Name the outcome recorded for NC(N)=NC(=O)Cc1c(Cl)cccc1Cl in the assay.
Output: inactive

Input: Name the outcome recorded for CC(=O)CCc1ccc(O)cc1 in the assay.
Output: inactive

Input: Name the outcome recorded for C/C=C(\C)C#N in the assay.
Output: inactive

Input: Name the outcome recorded for ClC(Cl)(Br)Br in the assay.
Output: inactive

Input: Name the outcome recorded for CCOC(=O)CCc1ccccc1 in the assay.
Output: inactive

Input: Name the outcome recorded for CC1(C)Cc2cccc(N)c2O1 in the assay.
Output: inactive

Input: Name the outcome recorded for CC(C)(O)C(=O)c1ccccc1 in the assay.
Output: inactive

Input: Name the outcome recorded for CC(C)=CCC/C(C)=C/CC/C(C)=C/CO in the assay.
Output: active

Input: Name the outcome recorded for C=CC(C)(C)O in the assay.
Output: inactive
